PROTOCOL: Cytotoxicity (CC50) in C8166 cells
Format: cell-based
CONDITION: human
PARAMETER: CC50

1) COc1ccccc1NC(=O)c1c(Sc2ccc([N+](=O)[O-])cc2)cccc1N1CCNCC1	10.2 µg/mL
2) COc1ccccc1NC(=O)c1c(N(C)C)cccc1S(=O)(=O)c1ccc([N+](=O)[O-])cc1	> 200 µg/mL
3) COc1ccccc1NC(=O)c1c(NCC(N)=O)cccc1Sc1ccc([N+](=O)[O-])cc1	> 200 µg/mL

Now examine the next entry.
INPUT: Look up CC50: COc1ccccc1NC(=O)c1c(NCCN)cccc1S(=O)(=O)c1ccc([N+](=O)[O-])cc1
OUTPUT: 90.9 µg/mL

----------
Test system: HIV-1IIIB
PROTOCOL: Anti-HIV activity in H9 cells
Assay type: cell-based
CONDITION: Human immunodeficiency virus 1; HIV-1IIIB, H9 cells; read-out: EC50
PARAMETER: EC50 (µg/mL)
Please state the figure in µg/mL; there is no need to write the unit.

1. COc1ccccc1NC(=O)c1c(NCCO)cccc1Sc1ccc([N+](=O)[O-])cc1	19.1

# context switch: different molecule, same EC50
INPUT: Form: Entry = COc1ccccc1NC(=O)c1c(NS(=O)(=O)c2ccccc2)cccc1Sc1ccc([N+](=O)[O-])cc1 | System = HIV-1IIIB | EC50 = ____
OUTPUT: 137

Measured values drawn from patent US9402819B2 for this set.
